tested on: MOLT-4; assay: NCI 60 human tumor cell line screen (SRB); type: cell-based; conditions: MOLT-4 (Leukemia); 48 h
Measured Log10GI50 by item

COMPOUND	STUDY TARGET	Log10GI50
C[C@]1(C(=O)[C@H](Cc2ccccc2)NC(=O)[C@H](COC(F)F)NC(=O)[C@H](COC(F)F)NC(=O)CN2CCOCC2)CO1 [Example 26]	MOLT-4	−7.69
C[C@]1(C(=O)[C@H](Cc2ccccc2)NC(=O)[C@H](Cc2ccccc2)NC(=O)[C@H](COC(F)F)NC(=O)CN2CCOCC2)CO1 [Example 29]	MOLT-4	−7.54
Cc1ncc(C(=O)N[C@@H](COC(F)F)C(=O)N[C@@H](COC(F)F)C(=O)N[C@@H](Cc2ccccc2)C(=O)[C@@]2(C)CO2)s1 [Example 1]	MOLT-4	−7.37
CC(C)C[C@H](NC(=O)[C@H](Cc1ccccc1)NC(=O)[C@H](COC(F)F)NC(=O)CN1CCOCC1)C(=O)[C@@]1(C)CO1 [Example 25]	MOLT-4	−7.69

###

system: SNB-19; test: NCI 60 human tumor cell line screen (SRB); type: cell-based; settings: SNB-19 (CNS Cancer); 48 h
The entries below are paired with their reported Log10GI50.
MEASUREMENT LABEL: Log10GI50

STRUCTURE AS SMILES	EXPERIMENTAL RESULT
CC(C)C[C@H](NC(=O)[C@H](Cc1ccccc1)NC(=O)[C@H](COC(F)F)NC(=O)CN1CCOCC1)C(=O)[C@@]1(C)CO1	−7.23
C[C@]1(C(=O)[C@H](Cc2ccccc2)NC(=O)[C@H](COC(F)F)NC(=O)[C@H](COC(F)F)NC(=O)CN2CCOCC2)CO1	−7.23
C[C@]1(C(=O)[C@H](Cc2ccccc2)NC(=O)[C@H](Cc2ccccc2)NC(=O)[C@H](COC(F)F)NC(=O)CN2CCOCC2)CO1	−6.51
Cc1ncc(C(=O)N[C@@H](COC(F)F)C(=O)N[C@@H](COC(F)F)C(=O)N[C@@H](Cc2ccccc2)C(=O)[C@@]2(C)CO2)s1	−6.49

###

# Log10LC50 annotations
test system: KM12; assay: NCI 60 human tumor cell line screen (SRB); type: cell-based; conditions: KM12 (Colon Cancer); 48 h
MEASUREMENT LABEL: Log10LC50

STRUCTURE AS SMILES	STUDY TARGET	EXPERIMENTAL RESULT
Cc1ncc(C(=O)N[C@@H](COC(F)F)C(=O)N[C@@H](COC(F)F)C(=O)N[C@@H](Cc2ccccc2)C(=O)[C@@]2(C)CO2)s1	KM12	−6.10
C[C@]1(C(=O)[C@H](Cc2ccccc2)NC(=O)[C@H](COC(F)F)NC(=O)[C@H](COC(F)F)NC(=O)CN2CCOCC2)CO1	KM12	−7.06
CC(C)C[C@H](NC(=O)[C@H](Cc1ccccc1)NC(=O)[C@H](COC(F)F)NC(=O)CN1CCOCC1)C(=O)[C@@]1(C)CO1	KM12	−7.06
C[C@]1(C(=O)[C@H](Cc2ccccc2)NC(=O)[C@H](Cc2ccccc2)NC(=O)[C@H](COC(F)F)NC(=O)CN2CCOCC2)CO1	KM12	−6.27

###

System: UACC-62
Test: NCI 60 human tumor cell line screen (SRB)
Type: cell-based
Details: UACC-62 (Melanoma); 48 h
Experimental: […] Following drug addition, the plates are incubated for an additional 48 h at 37° C., 5% CO2, 95% air, and 100% relative humidity. […] Bound stain is subsequently solubilised with 10 mM trizma base, and the absorbance is read on an automated plate reader at a wavelength of 515 nm. […] Percentage growth inhibition is calculated as: [(Ti−Tz)/(C−Tz)]×100 for concentrations in which Ti>/=Tz and [(Ti−Tz)/Tz]×100 for concentrations in which Ti<Tz. […]
Listed here are compounds together with their documented Log10LC50.
MEASUREMENT LABEL: Log10LC50

STRUCTURE AS SMILES	MEASUREMENT LABEL	RELATIONAL OPERATOR	EXPERIMENTAL RESULT
C[C@]1(C(=O)[C@H](Cc2ccccc2)NC(=O)[C@H](Cc2ccccc2)NC(=O)[C@H](COC(F)F)NC(=O)CN2CCOCC2)CO1	Log10LC50	>	−4.00
C[C@]1(C(=O)[C@H](Cc2ccccc2)NC(=O)[C@H](COC(F)F)NC(=O)[C@H](COC(F)F)NC(=O)CN2CCOCC2)CO1	Log10LC50	=	−4.58
CC(C)C[C@H](NC(=O)[C@H](Cc1ccccc1)NC(=O)[C@H](COC(F)F)NC(=O)CN1CCOCC1)C(=O)[C@@]1(C)CO1	Log10LC50	=	−4.58
Cc1ncc(C(=O)N[C@@H](COC(F)F)C(=O)N[C@@H](COC(F)F)C(=O)N[C@@H](Cc2ccccc2)C(=O)[C@@]2(C)CO2)s1	Log10LC50	=	−4.95

###

system: HOP-62; experiment: NCI 60 human tumor cell line screen (SRB); type: cell-based; conditions: HOP-62 (Non-Small Cell Lung Cancer); 48 h
MEASUREMENT LABEL: Log10TGI50

STRUCTURE AS SMILES	STUDY TARGET	MEASUREMENT LABEL	EXPERIMENTAL RESULT
C[C@]1(C(=O)[C@H](Cc2ccccc2)NC(=O)[C@H](Cc2ccccc2)NC(=O)[C@H](COC(F)F)NC(=O)CN2CCOCC2)CO1	HOP-62	Log10TGI50	−6.53
C[C@]1(C(=O)[C@H](Cc2ccccc2)NC(=O)[C@H](COC(F)F)NC(=O)[C@H](COC(F)F)NC(=O)CN2CCOCC2)CO1	HOP-62	Log10TGI50	−7.42
CC(C)C[C@H](NC(=O)[C@H](Cc1ccccc1)NC(=O)[C@H](COC(F)F)NC(=O)CN1CCOCC1)C(=O)[C@@]1(C)CO1	HOP-62	Log10TGI50	−7.42
Cc1ncc(C(=O)N[C@@H](COC(F)F)C(=O)N[C@@H](COC(F)F)C(=O)N[C@@H](Cc2ccccc2)C(=O)[C@@]2(C)CO2)s1	HOP-62	Log10TGI50	>−4.00

###

tested on: OCI-AML-2; assay: Cell viability assay (MTS); assay type: cell-based; settings: Homo sapiens, OCI-AML2, 72 hours, mean ± standard deviation
pIC50: −log10 of the molar value.
Note to self: values exactly at 7 are criterion met. So pIC50 at or above 7 is criterion met, below is criterion not met.

STRUCTURE AS SMILES	CAT
CC(C)C[C@H](NC(=O)[C@H](COC(F)F)NC(=O)CN1CCOCC1)C(=O)N[C@@H](Cc1ccccc1)C(=O)[C@@]1(C)CO1	criterion not met
C[C@]1(C(=O)[C@H](Cc2ccccc2)NC(=O)[C@H](COC(F)F)NC(=O)[C@H](COC(F)F)NC(=O)CN2CCOCC2)CO1	criterion not met
CC(C)C[C@H](NC(=O)[C@H](Cc1ccccc1)NC(=O)[C@H](COC(F)F)NC(=O)CN1CCOCC1)C(=O)[C@@]1(C)CO1	criterion met

###

Listed molecules paired with reported Log10TGI50
system: UO-31; assay: NCI 60 human tumor cell line screen (SRB); type: cell-based; conditions: UO-31 (Renal Cancer); 48 h
MEASUREMENT LABEL: Log10TGI50

MOLECULE	MEASUREMENT LABEL	EXPERIMENTAL RESULT
Cc1ncc(C(=O)N[C@@H](COC(F)F)C(=O)N[C@@H](COC(F)F)C(=O)N[C@@H](Cc2ccccc2)C(=O)[C@@]2(C)CO2)s1 [Example 1]	Log10TGI50	−5.32
C[C@]1(C(=O)[C@H](Cc2ccccc2)NC(=O)[C@H](Cc2ccccc2)NC(=O)[C@H](COC(F)F)NC(=O)CN2CCOCC2)CO1 [Example 29]	Log10TGI50	−5.71
C[C@]1(C(=O)[C@H](Cc2ccccc2)NC(=O)[C@H](COC(F)F)NC(=O)[C@H](COC(F)F)NC(=O)CN2CCOCC2)CO1 [Example 26]	Log10TGI50	−5.95
CC(C)C[C@H](NC(=O)[C@H](Cc1ccccc1)NC(=O)[C@H](COC(F)F)NC(=O)CN1CCOCC1)C(=O)[C@@]1(C)CO1 [Example 25]	Log10TGI50	−5.95

###

test system: T-47D; experiment: NCI 60 human tumor cell line screen (SRB); type: cell-based; settings: T-47D (Breast Cancer); 48 h
We begin with a simple list: items and their reported Log10GI50.

STRUCTURE AS SMILES	Log10GI50
Cc1ncc(C(=O)N[C@@H](COC(F)F)C(=O)N[C@@H](COC(F)F)C(=O)N[C@@H](Cc2ccccc2)C(=O)[C@@]2(C)CO2)s1	−6.59
C[C@]1(C(=O)[C@H](Cc2ccccc2)NC(=O)[C@H](Cc2ccccc2)NC(=O)[C@H](COC(F)F)NC(=O)CN2CCOCC2)CO1	−7.16
C[C@]1(C(=O)[C@H](Cc2ccccc2)NC(=O)[C@H](COC(F)F)NC(=O)[C@H](COC(F)F)NC(=O)CN2CCOCC2)CO1	−7.78
CC(C)C[C@H](NC(=O)[C@H](Cc1ccccc1)NC(=O)[C@H](COC(F)F)NC(=O)CN1CCOCC1)C(=O)[C@@]1(C)CO1	−7.78
